Source: patent US6815456B2

Reported melting point is given for each of the following molecules.
Counter-ions that a name gives are not always drawn.

{"molecule": "Nc1ccc(S(=O)(=O)n2ccc3c(OC4CCCNC4)cccc32)cc1 (stereo not shown) (as salt: hydrochloride)", "experimental value": "160 °C (dec.)"}
{"molecule": "CC(=O)Nc1ccc(S(=O)(=O)n2ncc3c(OC4CCNC4)cccc32)cc1Cl (stereo not shown) (as salt: trifluoroacetic acid salt)", "experimental value": "68 to 72 °C"}
{"molecule": "Nc1ccc(S(=O)(=O)n2ccc3c(OC4CCNCC4)cccc32)cc1 (as salt: hydrochloride)", "experimental value": "117 to 119 °C"}

With those in mind, consider the next molecule.
Ask | Any idea what melting point was measured for O=S(=O)(c1ccccc1Cl)n1ncc2c(OC3CCNC3)cccc21 (stereo not shown) (as salt: trifluoroacetic acid salt) ?
Reply | 161 to 163 °C

* * *

// pKi collected for human cloned 5-HT6 receptors (Homo sapiens, UniProt P50406)
pKi: −log10 of the molar value. Where a name gives a salt, the structure may show the parent alone.
recorded endpoint: pKi

Answered cases to consult:
{"compound": "CC(=O)Nc1ccc(S(=O)(=O)n2ncc3c(OC4CCNC4)cccc32)cc1Cl (stereo not drawn)", "experimental value": 7.92}
{"compound": "COc1ccc(S(=O)(=O)n2ncc3c(OC4CCNC4)cccc32)cc1OC (stereo not drawn)", "experimental value": 7.12}
{"compound": "O=S(=O)(c1ccccc1Cl)n1ncc2c(OC3CCNC3)cccc21 (stereo not drawn)", "experimental value": 7.72}
{"compound": "CC(=O)Nc1ccc(S(=O)(=O)n2ncc3c(OC4CCNC4)cccc32)cc1 (stereo not drawn)", "experimental value": 6.91}

P: O=S(=O)(c1ccccc1)n1ncc2c(OC3CCNC3)cccc21 (stereo not drawn) [Example 14, trifluoroacetic acid salt]
Q: O=S(=O)(c1ccccc1)n1ccc2c(OC3CCNC3)cccc21 (stereo not drawn) [Example 3, Hydrochloride]
R: O=S(=O)(c1cccc2ccccc12)n1ncc2c(OC3CCNC3)cccc21 (stereo not drawn)
Ask | Sort by pKi, descending. Please reply with the labels ordered as requested. Many thanks.
Reply | R, Q, P

* * *

Counter-ions that a name gives are not always drawn.
recorded endpoint: melting point

Answered cases to consult:
{"compound": "O=S(=O)(c1cccc2ccccc12)n1ncc2c(OC3CCNC3)cccc21 (stereo not drawn) (as salt: trifluoroacetic acid salt)", "melting point": "200 to 201 °C"}
{"compound": "O=S(=O)(c1ccc(Cl)s1)n1ncc2c(OC3CCNC3)cccc21 (stereo not drawn) (as salt: trifluoroacetic acid salt)", "melting point": "102 to 103 °C"}
{"compound": "O=S(=O)(c1ccccc1F)n1ncc2c(OC3CCNC3)cccc21 (stereo not drawn) (as salt: trifluoroacetic acid salt)", "melting point": "162 to 163 °C"}
{"compound": "Cc1nn(C)c(Cl)c1S(=O)(=O)n1ccc2c(OC3CCNC3)cccc21 (stereo not drawn) (as salt: hydrochloride)", "melting point": "100 °C (dec.)"}
{"compound": "O=S(=O)(c1cccc2ccccc12)n1ccc2c(OC3CCNC3)cccc21 (stereo not drawn) (as salt: hydrochloride)", "melting point": "179 °C (dec.)"}

Ask | Any idea what melting point was measured for O=S(=O)(c1cccc2cccnc12)n1ncc2c(OC3CCNC3)cccc21 (stereo not drawn) (as salt: trifluoroacetic acid salt) ?
Reply | 79 °C
